Where do the numbers come from? From patent US8389555B2.

# tested-target: human dopamine D3 receptors (Homo sapiens)
# Construct: expressed in transfected cells
# Sequence (P35462 whole entry): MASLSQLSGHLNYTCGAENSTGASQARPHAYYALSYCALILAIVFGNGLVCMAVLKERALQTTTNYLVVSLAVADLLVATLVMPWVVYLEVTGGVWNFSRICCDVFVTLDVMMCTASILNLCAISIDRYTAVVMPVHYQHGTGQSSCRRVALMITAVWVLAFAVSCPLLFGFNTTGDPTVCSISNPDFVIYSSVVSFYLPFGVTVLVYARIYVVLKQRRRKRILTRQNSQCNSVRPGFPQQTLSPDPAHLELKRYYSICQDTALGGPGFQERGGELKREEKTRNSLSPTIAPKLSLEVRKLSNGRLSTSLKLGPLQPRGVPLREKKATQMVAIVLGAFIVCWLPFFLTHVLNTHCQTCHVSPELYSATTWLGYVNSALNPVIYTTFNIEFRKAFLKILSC
# assay-explanation: Dopamine D3 receptor binding assay ([3H]spiperone, CHO cell membranes)
# test-context: ratio of Ki(D2) to Ki(D3)
Listing of entries alongside the reported Selectivity Ki(D2)/Ki(D3).
Please state the value as a number alone, without comment.

# annotated cases, reported Selectivity Ki(D2)/Ki(D3) shown
>  <molecule>
O=C(NCCCCNC1CCc2ncsc2C1)c1ccc2ccccc2c1 (stereo not drawn)

>  <readout-name>
Selectivity Ki(D2)/Ki(D3)

>  <reported-measurement>
143

$$$$
>  <molecule>
CCCN(CCCCC(=O)NC1Cc2ccccc2C1)C1CCc2ncsc2C1 (stereo not drawn)

>  <readout-name>
Selectivity Ki(D2)/Ki(D3)

>  <reported-measurement>
1550

$$$$
>  <molecule>
CCCN(CCCCNC(=O)N1CC=C(c2ccccc2)CC1)C1CCc2ncsc2C1 (stereo not drawn)

>  <readout-name>
Selectivity Ki(D2)/Ki(D3)

>  <reported-measurement>
667

$$$$
>  <molecule>
CCCN(CCCCNC(=O)N1CCN(c2ccccc2)CC1)C1CCc2ncsc2C1 (stereo not drawn)

>  <readout-name>
Selectivity Ki(D2)/Ki(D3)

>  <reported-measurement>
1640

$$$$
>  <molecule>
CCCN(CCCCNC(=O)C=Cc1ccc(F)cc1)C1CCc2ncsc2C1 (stereo not drawn)

>  <readout-name>
Selectivity Ki(D2)/Ki(D3)

>  <reported-measurement>
1479

$$$$

stdin: Please look up its Selectivity Ki(D2)/Ki(D3): CCN(CCCCNC(=O)c1cc2ccccc2s1)C1CCc2ncsc2C1 (stereo not drawn)
stdout: 856

stdin: Please look up its Selectivity Ki(D2)/Ki(D3): CCCN(CCCCNC(=O)NC1CCCCC1)C1CCc2ncsc2C1 (stereo not drawn)
stdout: 1642

stdin: Please look up its Selectivity Ki(D2)/Ki(D3): CCCN(CCCCC(=O)N1CCN(c2ccccc2)CC1)C1CCc2ncsc2C1 (stereo not drawn)
stdout: 572

stdin: Please look up its Selectivity Ki(D2)/Ki(D3): CCCN(CCCCNC(=O)N1CCc2cc(OC)c(OC)cc2C1)C1CCc2ncsc2C1 (stereo not drawn)
stdout: 2850

stdin: Please look up its Selectivity Ki(D2)/Ki(D3): CCCN(CCOc1ccccc1)C1CCc2ncsc2C1 (stereo not drawn)
stdout: 91

stdin: Please look up its Selectivity Ki(D2)/Ki(D3): CCN(CCCN1CCN(c2ccccc2OC)CC1)C1CCc2ncsc2C1 (stereo not drawn)
stdout: 2

* * *

Listing of entries alongside the reported Ki.
# tested-target: recombinant human D2(short) dopamine receptor (Homo sapiens)
# assay-explanation: Dopamine D2S receptor binding assay ([3H]spiperone, CHO cell membranes)
# test-context: human D2S receptors in CHO cells, 0.2 nM [3H]spiperone, mean ± SEM; read-out: Affinity Ki (D2)
Write the number in nM without appending the unit.

stdin: Please look up its Ki: CCCN(CCCCNC(=O)c1ccccc1)C1CCc2ncsc2C1 (centres unmarked)
stdout: 1680

* * *

# tested-target: recombinant human D2(short) dopamine receptor (Homo sapiens, UniProt P14416)
# Sequence (P14416 1-414 isoform P14416-2): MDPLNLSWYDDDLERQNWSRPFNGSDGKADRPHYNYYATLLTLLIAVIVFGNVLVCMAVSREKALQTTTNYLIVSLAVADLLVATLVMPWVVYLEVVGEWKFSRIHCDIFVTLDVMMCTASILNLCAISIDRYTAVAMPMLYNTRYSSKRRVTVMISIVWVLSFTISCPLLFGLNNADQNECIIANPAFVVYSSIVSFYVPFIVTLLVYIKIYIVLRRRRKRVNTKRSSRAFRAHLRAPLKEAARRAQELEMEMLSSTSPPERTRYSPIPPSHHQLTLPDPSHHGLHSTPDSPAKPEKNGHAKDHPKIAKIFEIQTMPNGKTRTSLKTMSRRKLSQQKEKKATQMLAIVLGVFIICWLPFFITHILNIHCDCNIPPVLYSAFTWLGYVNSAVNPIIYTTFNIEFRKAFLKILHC
# assay-explanation: Dopamine D2S receptor binding assay ([3H]spiperone, CHO cell membranes)
# test-context: human D2S receptors in CHO cells, 0.2 nM [3H]spiperone, mean ± SEM; read-out: Affinity Ki (D2)
Ki strictly less than 3 µM = MET. Otherwise NOT MET.

>  <molecule>
CCCN(CCCN1CCN(c2cccc(Cl)c2Cl)CC1)C1CCc2ncsc2C1 (stereo not drawn)

>  <tested-target>
recombinant human D2(short) dopamine receptor (Homo sapiens, UniProt P14416)

>  <label-class>
MET

$$$$
>  <molecule>
CCCN(Cc1ccc(C(=O)NC2Cc3ccccc3C2)cc1)C1CCc2ncsc2C1 (stereo not drawn)

>  <tested-target>
recombinant human D2(short) dopamine receptor (Homo sapiens, UniProt P14416)

>  <label-class>
NOT MET

$$$$
>  <molecule>
CCCN(CCCCNC(=O)c1cnc(-c2ccc(Cl)cc2)s1)C1CCc2ncsc2C1 (stereo not drawn)

>  <tested-target>
recombinant human D2(short) dopamine receptor (Homo sapiens, UniProt P14416)

>  <label-class>
MET

$$$$
>  <molecule>
CCCN(CCCCNC(=O)c1cc2ccccc2s1)C1CCc2ncsc2C1 (stereo not drawn)

>  <tested-target>
recombinant human D2(short) dopamine receptor (Homo sapiens, UniProt P14416)

>  <label-class>
MET

$$$$
>  <molecule>
CCN(CCCCN1CCN(c2ccccc2OC)CC1)C1CCc2ncsc2C1 (stereo not drawn)

>  <tested-target>
recombinant human D2(short) dopamine receptor (Homo sapiens, UniProt P14416)

>  <label-class>
MET

$$$$

stdin: Does the reported Ki of the following molecule sit strictly below 3 µM? O=C(NCCCCNC1CCc2ncsc2C1)c1nc2ccccc2s1 (stereo not drawn)
stdout: NOT MET

stdin: Does the reported Ki of the following molecule sit strictly below 3 µM? CCCN(CCCCNC(=O)C1Cc2ccccc2C1)C1CCc2ncsc2C1 (stereo not drawn)
stdout: MET

stdin: Does the reported Ki of the following molecule sit strictly below 3 µM? CC#CCN(CCCCNC(=O)c1ccc2ccccc2c1)C1CCc2ncsc2C1 (stereo not drawn)
stdout: NOT MET

stdin: Does the reported Ki of the following molecule sit strictly below 3 µM? CCN(CCCCNC(=O)c1cc2ccccc2s1)C1CCc2ncsc2C1 (stereo not drawn)
stdout: MET
